Data provenance: paper PMC10698238

- Test system: Phyllosticta citricarpa
- experiment.description: Inhibition of citrus black spot development in detached citrus fruits
- Type: in vivo
- experimental.parameters: detached C. sinensis fruits; 10 μL of 10 mg/mL solution in methanol; 21 days
metric.name: Development of citrus black spot (CBS) symptoms

CC(=O)OC[C@]12Oc3c(-c4ccc(O)c5c4O[C@@]4(COC(C)=O)C(=C(O)C[C@@H](C)[C@H]4OC(C)=O)C5=O)ccc(O)c3C(=O)C1=C(O)C[C@@H](C)[C@H]2OC(C)=O [compound 3, phomoxanthone A]    −
CCCCCCCc1cc(=O)c2c(CC(=O)OC)cc(O)cc2o1 [compound 9]    +
CC(=O)OC[C@]12Oc3ccc(-c4ccc5c(c4O)C(=O)C4=C(O)C[C@@H](C)[C@@H](OC(C)=O)[C@@]4(COC(C)=O)O5)c(O)c3C(=O)C1=C(O)C[C@@H](C)[C@H]2OC(C)=O [compound 5, dicerandrol C]    +
Cc1occc(=O)c1O [compound 10, maltol]    +
CC(=O)OC[C@]12Oc3ccc(-c4ccc(O)c5c4O[C@@]4(COC(C)=O)C(=C(O)C[C@@H](C)[C@H]4OC(C)=O)C5=O)c(O)c3C(=O)C1=C(O)C[C@@H](C)[C@H]2OC(C)=O [compound 4, phomoxanthone B]    +

Qu. Name the recorded Development of citrus black spot (CBS) symptoms of C=C1[C@@H](C)[C@H]2[C@H](Cc3ccccc3)NC(=O)[C@]23[C@H](OC(C)=O)/C=C/[C@](C)(O)C[C@@H](C)C/C=C/[C@H]3[C@@H]1O [compound 6, cytochalasin H] , assay system Phyllosticta citricarpa.
Ans. −

Qu. Name the recorded Development of citrus black spot (CBS) symptoms of C=C1[C@@H](C)[C@H]2[C@H](Cc3ccccc3)NC(=O)[C@]23[C@H](O)/C=C/[C@](C)(O)C[C@@H](C)C/C=C/[C@H]3[C@@H]1O [compound 7, cytochalasin J] , assay system Phyllosticta citricarpa.
Ans. +

* * *

Parameter pIC50: see the listing below.
- Test system: A549 (non-small cell lung cancer) cell line
- experiment.description: Cytotoxicity assay
- experimental.parameters: Homo sapiens, A549, 72 h, read-out: IC50 A549
Just the number, please; pIC50 means minus log10 of the concentration in mol/L.

CC(=O)OC[C@]12Oc3ccc(-c4ccc5c(c4O)C(=O)C4=C(O)C[C@@H](C)[C@@H](OC(C)=O)[C@@]4(COC(C)=O)O5)c(O)c3C(=O)C1=C(O)C[C@@H](C)[C@H]2OC(C)=O    5.53
CC(=O)OC[C@]12Oc3ccc(-c4ccc(O)c5c4O[C@@]4(COC(C)=O)C(=C(O)C[C@@H](C)[C@H]4OC(C)=O)C5=O)c(O)c3C(=O)C1=C(O)C[C@@H](C)[C@H]2OC(C)=O    4.98

# evaluate next
Qu. State its pIC50: `CC(=O)OC[C@]12Oc3c(-c4ccc(O)c5c4O[C@@]4(COC(C)=O)C(=C(O)C[C@@H](C)[C@H]4OC(C)=O)C5=O)ccc(O)c3C(=O)C1=C(O)C[C@@H](C)[C@H]2OC(C)=O`
Ans. 5.31
